Origin of values: patent US20060014212A1

- tested-system: anti-A039 antibody (C9 PET)
- experiment-summary: peptide competition assay in 6% BSA
Where no end group is shown, it is not given here.
readout-name: IC50 (nM)
Give bare numbers, in nM.

// IC50 lookup, key: Ac-PWNVASLIYETKC [A039 peptide (C9), Ac-…]
0.4
